Values were extracted from the supplement of paper PMC10065799.

- target_under_test: Fyn (UniProt P06241)
- Sequence (P06241 whole entry, looked up): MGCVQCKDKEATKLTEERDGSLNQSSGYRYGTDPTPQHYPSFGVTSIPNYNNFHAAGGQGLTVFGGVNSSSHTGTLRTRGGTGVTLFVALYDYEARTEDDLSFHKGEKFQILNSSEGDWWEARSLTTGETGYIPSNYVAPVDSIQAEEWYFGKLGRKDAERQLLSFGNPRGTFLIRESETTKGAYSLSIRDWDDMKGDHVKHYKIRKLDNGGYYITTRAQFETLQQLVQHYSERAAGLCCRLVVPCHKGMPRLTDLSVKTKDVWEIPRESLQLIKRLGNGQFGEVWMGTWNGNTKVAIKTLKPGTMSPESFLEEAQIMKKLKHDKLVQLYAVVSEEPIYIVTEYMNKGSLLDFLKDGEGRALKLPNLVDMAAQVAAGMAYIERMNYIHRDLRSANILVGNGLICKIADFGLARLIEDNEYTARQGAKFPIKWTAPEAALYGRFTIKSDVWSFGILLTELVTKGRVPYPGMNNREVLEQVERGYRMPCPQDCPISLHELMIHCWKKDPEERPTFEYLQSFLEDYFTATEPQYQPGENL
- procedure_summary: phosphorylation enrichment, bacterial display (enrichment ratio); higher = better substrate or ligand; peptides without Tyr show the background
readout_label: phosphorylation enrichment

Reference set, count: 8
# sequence_input, value_measured
measured = [
    ("DVFLKYLNFAT [PDE6B_Y212]", 0.557),
    ("METKGYHSLPE [NR3C2_Y6]", 0.287),
    ("AELVRYFMEHH [PTPN11_Y80_Q79R_YF]", 0.414),
    ("KKLAEYGPQGR [CLCA1_Y147]", 0.408),
    ("KQVEQYMSFHK [HCN1_Y417]", 1.49),
    ("GTHCHYKAPTV [FZD9_Y569]", 0.442),
    ("NPETCYQKLKK [TK2_Y190_R192K]", 0.428),
    ("AVNNFYAAKKT [CCDC178_Y422_D420N]", 0.372),
]

Any idea what phosphorylation enrichment came out for VNTTLYEKFTY [TEK_Y1108] on Fyn (UniProt P06241)? 3.69

Any idea what phosphorylation enrichment came out for GHEEFYSTHPH [LRRK2_Y1402_R1398H] on Fyn (UniProt P06241)? 0.638

Any idea what phosphorylation enrichment came out for MTRDIYRASYY [ALK_Y1278_A1274T] on Fyn (UniProt P06241)? 0.888

Any idea what phosphorylation enrichment came out for QGLRLYRPHLP [BTK_Y617_A622P] on Fyn (UniProt P06241)? 0.401

Any idea what phosphorylation enrichment came out for EKQLLYSENKT [FRK_Y132] on Fyn (UniProt P06241)? 0.465

Any idea what phosphorylation enrichment came out for KKYPDYIQIAM [SGMS2_Y59] on Fyn (UniProt P06241)? 0.448

###

- target_under_test: Grb2 SH2 (UniProt P62993)
- Sequence (P62993 whole entry, looked up): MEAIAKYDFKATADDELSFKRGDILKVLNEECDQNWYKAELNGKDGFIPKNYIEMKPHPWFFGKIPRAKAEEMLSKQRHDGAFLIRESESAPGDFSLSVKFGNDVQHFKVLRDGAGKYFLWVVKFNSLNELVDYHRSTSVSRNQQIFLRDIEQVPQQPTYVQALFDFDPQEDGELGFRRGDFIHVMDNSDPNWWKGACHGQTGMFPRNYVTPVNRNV
- procedure_summary: SH2 binding enrichment of the phosphorylated peptide, bacterial display (enrichment ratio); higher = better substrate or ligand; peptides without Tyr show the background
readout_label: SH2 binding enrichment
Number only, please.

# sequence_input, value_measured
rows = [
    ("PVQAAYQKVEA [HBB_Y131_V135E]", 1.02),
    ("GGMTEYELVVV [KRAS_Y4_K5E]", 0.792),
    ("IHSGIYFKPES [L2HGDH_Y102_YF]", 0.747),
    ("VRQQDYKKVEE [HADHA_Y283_V282D]", 1.02),
    ("NGEDPYAGSTD [XRCC1_Y515]", 0.638),
    ("FSQQTYFRVSN [ABCD1_Y180_YF]", 0.887),
    ("GHNDVYILEHV [GRIN2A_Y1423_S1425L]", 0.717),
    ("NFCPGYNNFFN [USH2A_Y467_R464C_YF]", 2.15),
]

# query: SH2 binding enrichment of entry FHNSEYGELSE [FLT4_Y1337_Y1333H] 0.893

# query: SH2 binding enrichment of entry KANEYYPVVII [ADAMTS18_Y765_L769I] 0.721

# query: SH2 binding enrichment of entry TSFSGYRCHRH [NKAPL_Y94_Y96C_YF] 1.01

# query: SH2 binding enrichment of entry NTDETYSIDNE [TUBB2B_Y200_C201S] 0.761

# query: SH2 binding enrichment of entry LSDGPYSNSFE [EPOR_Y485_P488S_YF] 1

###

- Test system: c-Abl (mouse)
- procedure_summary: phosphorylation enrichment, bacterial display (enrichment ratio); higher = better substrate or ligand; peptides without Tyr show the background
readout_label: phosphorylation enrichment
Number only, please.

Reference set, count: 5
# sequence_input, phosphorylation enrichment
measured = [
    ("EIRTQDEAMAS [GFAP_Y242_Y242D]", 0.489),
    ("EFKKHYGFSLF [ANXA3_Y295_YF]", 0.642),
    ("DHAGMYGLGDR [MAPT_Y18_T17M]", 0.411),
    ("RPLVVYPWTQR [HBB_Y36_L32P]", 0.509),
    ("GSPAPYRRRKR [MBD1_Y403_P401A]", 0.497),
]

Any idea what phosphorylation enrichment came out for LIDSSYLTRTA [GREB1L_Y1063] on c-Abl (mouse)? 0.634

Any idea what phosphorylation enrichment came out for EEGRVYVYRLS [ITGAE_Y549] on c-Abl (mouse)? 0.713

###

Let's look at some sequences and their measured phosphorylation enrichment.
- Tested on: c-Abl (mouse)
- procedure_summary: phosphorylation enrichment, bacterial display (enrichment ratio); higher = better substrate or ligand; peptides without Tyr show the background
Number only, please.

Reference set, count: 5
# sequence_input, target_under_test, value_measured
measured = [
    ("RMETAYGPSVT [MXRA5_Y2717_E2716A]", "c-Abl (mouse)", 0.511),
    ("EEGNPYFSGAR [MCCC2_Y520_S523G_YF]", "c-Abl (mouse)", 0.687),
    ("KTTGGYAGGLS [KRT8_Y419_S417G]", "c-Abl (mouse)", 0.649),
    ("RRVLVYVGRGA [QDPR_Y16_G17V]", "c-Abl (mouse)", 0.798),
    ("DVFLKYLNFAT [PDE6B_Y212]", "c-Abl (mouse)", 1.46),
]

# query: phosphorylation enrichment of entry VLTSKYCGGGG [HBA1_Y141_R142C] 0.747

# query: phosphorylation enrichment of entry LREKVYASLEA [RXRA_Y397] 5.68

# query: phosphorylation enrichment of entry ANVKWYRSGRE 0.587

# query: phosphorylation enrichment of entry NVVHEYSSELE [FGB_Y172_N170H] 0.987

# query: phosphorylation enrichment of entry IGKAGYTDKVV [ENO1_Y236] 0.481

# query: phosphorylation enrichment of entry DISEPYKVYRI [IRF8_Y107] 0.62

# query: phosphorylation enrichment of entry METKGYHSLPE [NR3C2_Y6] 0.704

# query: phosphorylation enrichment of entry AQVDTYCRHNY [HLA-DRB1_Y107_A103Q] 0.693

# query: phosphorylation enrichment of entry PSELYYSKIGP [SMG1_Y2254] 3.88

###

Let's look at some sequences and their measured phosphorylation enrichment.
- target_under_test: FGFR1 (UniProt P11362)
- Sequence (P11362 whole entry, looked up): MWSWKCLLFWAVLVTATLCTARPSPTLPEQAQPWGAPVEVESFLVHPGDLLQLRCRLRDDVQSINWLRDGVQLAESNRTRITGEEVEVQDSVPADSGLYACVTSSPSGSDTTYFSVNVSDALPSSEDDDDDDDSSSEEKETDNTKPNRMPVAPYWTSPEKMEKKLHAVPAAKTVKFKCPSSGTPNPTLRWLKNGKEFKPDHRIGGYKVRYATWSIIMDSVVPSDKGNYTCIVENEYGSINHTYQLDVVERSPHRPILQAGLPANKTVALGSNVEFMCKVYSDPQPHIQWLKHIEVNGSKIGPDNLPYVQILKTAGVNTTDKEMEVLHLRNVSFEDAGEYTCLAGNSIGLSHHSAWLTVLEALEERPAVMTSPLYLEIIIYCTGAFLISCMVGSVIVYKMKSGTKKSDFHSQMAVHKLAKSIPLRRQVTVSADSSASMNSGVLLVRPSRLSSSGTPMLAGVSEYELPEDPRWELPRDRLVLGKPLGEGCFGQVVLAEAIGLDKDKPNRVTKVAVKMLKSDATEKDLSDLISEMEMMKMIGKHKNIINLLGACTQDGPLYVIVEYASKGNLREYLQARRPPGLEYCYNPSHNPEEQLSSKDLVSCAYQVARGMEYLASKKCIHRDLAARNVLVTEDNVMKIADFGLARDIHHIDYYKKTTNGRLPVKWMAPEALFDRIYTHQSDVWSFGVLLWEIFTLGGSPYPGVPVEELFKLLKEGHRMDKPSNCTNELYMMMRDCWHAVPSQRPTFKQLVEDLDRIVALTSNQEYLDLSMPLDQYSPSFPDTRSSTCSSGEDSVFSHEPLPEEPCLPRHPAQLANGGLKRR
- procedure_summary: phosphorylation enrichment, bacterial display (enrichment ratio); higher = better substrate or ligand; peptides without Tyr show the background
Number only, please.

Reference set, count: 5
# sequence_input, readout_label, value_measured
measured = [
    ("LQLLGDRPVFS [CHST6_Y358_Y358D_YF]", "phosphorylation enrichment", 0.448),
    ("DISEPYKVYRI [IRF8_Y107]", "phosphorylation enrichment", 0.481),
    ("PTDGVYVMPTV [MYO7A_Y1668_S1666G]", "phosphorylation enrichment", 2.95),
    ("DMDATYRPMYS [JUP_Y701]", "phosphorylation enrichment", 0.544),
    ("PDNEPYIFKVF [PIK3AP1_Y553]", "phosphorylation enrichment", 1.16),
]

# query: phosphorylation enrichment of entry RSFLSYYTSHV [NEFL_Y442_P440L] 0.575

# query: phosphorylation enrichment of entry RLDRSYSYSYS [PEAR1_Y890] 0.594

# query: phosphorylation enrichment of entry RAYRHYLLKQK [SCN2A_Y1919_R1918H] 0.31

# query: phosphorylation enrichment of entry PESTLYRKFTT [NTRK1_Y701_I699T] 0.646

# query: phosphorylation enrichment of entry ILLAGCLVMVI [SLC28A3_Y113_Y113C] 0.422

# query: phosphorylation enrichment of entry FSKDIYKRVTG [PANK2_Y405_N404I_YF] 0.431

# query: phosphorylation enrichment of entry HQPGEYIFHAE [FLT3_Y416] 0.819

# query: phosphorylation enrichment of entry NVTRKYSRQIL [MAP3K2_Y463_T464S] 0.363

# query: phosphorylation enrichment of entry YVFSFYHAFSG [ACTN4_Y265_S262F] 0.921

# query: phosphorylation enrichment of entry TTIVSYRASQP [MKI67_Y1737_K1734I] 0.441

# query: phosphorylation enrichment of entry QTEGEYSSLEH [IDH3B_Y171] 0.995

# query: phosphorylation enrichment of entry YSDPSYVKQME [CDC5L_Y464] 0.985

###

- target_under_test: FGFR3 (UniProt P22607)
- Sequence (P22607 whole entry, looked up): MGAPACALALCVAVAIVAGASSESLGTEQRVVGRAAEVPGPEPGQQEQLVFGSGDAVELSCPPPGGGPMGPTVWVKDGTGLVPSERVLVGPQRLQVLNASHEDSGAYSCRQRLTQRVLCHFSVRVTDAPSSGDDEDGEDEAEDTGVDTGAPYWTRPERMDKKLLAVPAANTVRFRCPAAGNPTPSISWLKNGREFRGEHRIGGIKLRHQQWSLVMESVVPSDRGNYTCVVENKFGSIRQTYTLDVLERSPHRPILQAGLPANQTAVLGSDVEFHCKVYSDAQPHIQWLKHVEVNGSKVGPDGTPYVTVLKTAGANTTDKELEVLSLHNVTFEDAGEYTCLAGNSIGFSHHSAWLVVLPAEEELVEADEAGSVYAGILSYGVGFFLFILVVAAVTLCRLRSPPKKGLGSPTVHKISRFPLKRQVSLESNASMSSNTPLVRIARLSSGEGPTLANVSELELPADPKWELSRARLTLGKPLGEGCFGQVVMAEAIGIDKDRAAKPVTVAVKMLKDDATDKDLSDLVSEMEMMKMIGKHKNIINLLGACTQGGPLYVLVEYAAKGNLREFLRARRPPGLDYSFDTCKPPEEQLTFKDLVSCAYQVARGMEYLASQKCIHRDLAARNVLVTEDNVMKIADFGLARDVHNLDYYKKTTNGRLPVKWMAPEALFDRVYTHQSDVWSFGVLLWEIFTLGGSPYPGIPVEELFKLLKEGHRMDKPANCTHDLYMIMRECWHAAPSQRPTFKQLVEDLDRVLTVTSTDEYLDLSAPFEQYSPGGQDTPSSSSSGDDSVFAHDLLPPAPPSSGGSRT
- procedure_summary: phosphorylation enrichment, bacterial display (enrichment ratio); higher = better substrate or ligand; peptides without Tyr show the background
Let's look at some sequences and their measured phosphorylation enrichment.

Reference set, count: 6
# sequence_input, phosphorylation enrichment
measured = [
    ("GGMTEYELVVV [KRAS_Y4_K5E]", 1.62),
    ("VVRSLYEDLED [VHL_Y185_I180V]", 0.792),
    ("SHSMRYFDTSV [HLA-C_Y31_A35S]", 0.463),
    ("SILAVYSKDNY [PANK2_Y400]", 0.524),
    ("TTIVSYRASQP [MKI67_Y1737_K1734I]", 0.477),
    ("IVEYAYNDKAV [PUM3_Y259_I264V]", 0.673),
]

# query: phosphorylation enrichment of entry TEYSQYMRRKN [MAX_Y73_I71S] 0.508

# query: phosphorylation enrichment of entry LEIETYPRLLD [KRT12_Y429_R430P] 1.06

# query: phosphorylation enrichment of entry VNKIFHPDFIV [LIG3_Y768_Y768H_YF] 0.547

# query: phosphorylation enrichment of entry LVQAEYWHDRI [PPT1_Y185_P189R] 2.08

# query: phosphorylation enrichment of entry FASTGYVIAIQ [GRIN2B_Y762_G763V] 0.724

# query: phosphorylation enrichment of entry AHLLQYNHRVK [LGALS3_Y221] 0.442

# query: phosphorylation enrichment of entry KGNMYYENSYA [EGFR_Y113_R108K] 0.72

# query: phosphorylation enrichment of entry AQMAMYFWEMG [TRPM4_Y577] 3.09

# query: phosphorylation enrichment of entry VNTTLYEKFTY [TEK_Y1108] 0.648

# query: phosphorylation enrichment of entry FDDIAYIRKNL [PIK3CA_Y1021_T1025N] 0.56

# query: phosphorylation enrichment of entry QNAGDYFDLFG [PTPN11_Y62_T59A_YF] 24.5

# query: phosphorylation enrichment of entry LLLLFYVVRYC [MPZ_Y177] 0.436

# query: phosphorylation enrichment of entry VKYGAYINDFK [GLB1_Y488_N484K] 0.463

# query: phosphorylation enrichment of entry AKGMKYLASKK [MET_Y1194] 0.311

# query: phosphorylation enrichment of entry MKKQKYGRIIM [HSD17B4_Y143] 0.971

# query: phosphorylation enrichment of entry MSNFACVKREV [SCN1A_Y1694_Y1694C] 0.592

# query: phosphorylation enrichment of entry ILGTYYETGSI [PAX2_Y73_R71T] 8.15

# query: phosphorylation enrichment of entry KIPGRYFETGS [PAX2_Y72_L69P_YF] 0.531

# query: phosphorylation enrichment of entry QKKEEYKMALY [F8_Y1990_R1985Q] 0.582

# query: phosphorylation enrichment of entry RRAKGYPIDLF [ITGB2_Y125_YF] 0.677

# query: phosphorylation enrichment of entry LTQRTYMLENA [GPAA1_Y49_S51L] 0.929
